# Tested on: U2OS
# PROTOCOL_DESCRIPTION: Multiplex assay against U2OS
# Format: toxicity, cell-based
# CONDITION_NOTES: human, 48 h, 1 µM, compound concentration 1 uM, replicate 2
REPORTED_ENDPOINT: Population Tubulin-Different-Phenotype (%)
Reply with a number, then the unit it belongs to.

Look over these answered cases.
O=C(O)c1ccc2cc(-c3ccc(O)c(C45CC6CC(CC(C6)C4)C5)c3)ccc2c1 [O-DEMETHYLATED ADAPALENE]	21%
CNc1oc(-c2cccc3ccccc23)nc1C#N	19%
Cc1cc2c(cc1N1C(=O)c3cccc4c(CCCO)ccc(c34)C1=O)n(C)c(=O)n2C	28%
CCn1c(-c2nonc2N)nc2cnc(Oc3cccc(NC(=O)c4ccc(OCCN5CCOCC5)cc4)c3)cc21 [GSK-269962A]	17%
CCCn1c(=O)c2[nH]c(C34CC5CC(CC3C5)C4)nc2n(CCC)c1=O [ROLOFYLLINE]	17%

// next entry
Sample CCC(=O)O[C@]1(C(=O)SCF)[C@H](C)C[C@H]2[C@@H]3C[C@H](F)C4=CC(=O)C=C[C@]4(C)[C@@]3(F)[C@@H](O)C[C@@]21C [FLUTICASONE PROPIONATE] ; Population Tubulin-Different-Phenotype (%) observed: 19%

###

# Tested on: Fibroblast
# PROTOCOL_DESCRIPTION: Multiplex assay against human fibroblast
# Type: toxicity, cell-based
# CONDITION_NOTES: 48 h, 10 µM, compound concentration 10 uM, replicate 2
Note to self: use t only for Population Apoptotic (%) readings below 70%; a reading exactly at 70% still gets f.

Lab note: Population Apoptotic (%) threshold 70%. Does this molecule come in strictly under it? O=C(O)c1ccc2cc(-c3ccc(O)c(C45CC6CC(CC(C6)C4)C5)c3)ccc2c1
t

Lab note: Population Apoptotic (%) threshold 70%. Does this molecule come in strictly under it? CC(C)Oc1ccc(C(=O)N[C@H](CNC(=O)CN(C)C)Cc2ccc(-c3cn4cccc([C@H](C)O)c4n3)cc2)cc1Cl [GSK-923295A]
t

Lab note: Population Apoptotic (%) threshold 70%. Does this molecule come in strictly under it? Cc1cc2c(cc1N1C(=O)c3cccc4c(CCCO)ccc(c34)C1=O)n(C)c(=O)n2C
t

Lab note: Population Apoptotic (%) threshold 70%. Does this molecule come in strictly under it? Cl.Cl.Nc1ncnc2c1c(-c1cccc(OCc3ccccc3)c1)cn2[C@H]1C[C@@H](CN2CCC2)C1
f

Lab note: Population Apoptotic (%) threshold 70%. Does this molecule come in strictly under it? CCC(=O)O[C@]1(C(=O)SCF)[C@H](C)C[C@H]2[C@@H]3C[C@H](F)C4=CC(=O)C=C[C@]4(C)[C@@]3(F)[C@@H](O)C[C@@]21C [FLUTICASONE PROPIONATE]
f

Lab note: Population Apoptotic (%) threshold 70%. Does this molecule come in strictly under it? Nc1nc2c(c(N3CCNCC3)n1)CCC1=C2[C@@H]2CCCC[C@@H]2O1
t

Lab note: Population Apoptotic (%) threshold 70%. Does this molecule come in strictly under it? CCCn1c(=O)c2[nH]c(C34CC5CC(CC3C5)C4)nc2n(CCC)c1=O
t

###

# Tested on: HEK-293T
# PROTOCOL_DESCRIPTION: Multiplex assay against HEK293T
# Assay type: toxicity, cell-based
# CONDITION_NOTES: human, 12 h, 10 µM, compound concentration 10 uM, replicate 2
REPORTED_ENDPOINT: Population Fragmented Nuclei (%)
Reply with a number, then the unit it belongs to.

Look over these answered cases.
COc1cc2c(Nc3ccc(NC(=O)c4ccccc4)cc3)ncnc2cc1OCCCN1CCOCC1	3%
Cl.Cl.NC1(c2ccc(-c3nc4ccn5c(=O)[nH]nc5c4cc3-c3ccccc3)cc2)CCC1	5%
CN(C)C/C=C/C(=O)Nc1cc2c(Nc3ccc(F)c(Cl)c3)ncnc2cc1O[C@H]1CCOC1.O=C(O)/C=C\C(=O)O.O=C(O)/C=C\C(=O)O [AFATINIB DIMALEATE]	3%
COc1cc(N2CCC(N(C)C)CC2)ccc1Nc1ncc(Cl)c(Nc2ccccc2P(C)(C)=O)n1	3%
Cc1cc2c(cc1N1C(=O)c3cccc4c(CCCO)ccc(c34)C1=O)n(C)c(=O)n2C	2%

Sample Cc1nc(Cc2cccc(C(F)(F)F)c2)sc1-c1ccc(C(N)=O)nc1 [TP-024n] ; Population Fragmented Nuclei (%) observed: 8%

Sample Cl.Cl.Nc1ncnc2c1c(-c1cccc(OCc3ccccc3)c1)cn2[C@H]1C[C@@H](CN2CCC2)C1 ; Population Fragmented Nuclei (%) observed: 21%

Sample COc1cc2c(NC3CCN(C(C)C)CC3)nc(N3CCC(F)(F)CC3)nc2cc1OCCCN1CCCC1 ; Population Fragmented Nuclei (%) observed: 7%

The reported numbers originate from ChEMBL document CHEMBL4689842.
